Catalogue of molecules with associated pIC50
- ASSAY SUMMARY: Cytotoxicity against human colchicine-resistant KBC2 cells in presence of 2.5 uM colchicine after 48 hrs by MTT assay
- Assay type: cell-based
- PROTOCOL CONDITIONS: KB-C2, 48 h
Please keep in mind that pIC50 is minus log10 of the molar concentration; only the number is needed.

Task: # pIC50 lookup, item CC1(C)[C@H](O)CC[C@]2(C)[C@H]3CC[C@@H]4[C@@H]([C@]5(C)CCC(=O)O5)CC[C@@]4(C)[C@]3(C)CC[C@@H]12 [CABRALEAHYDROXYLACTONE]
Output: 4.69

Task: I would be grateful if you could share the reported pIC50 for C=C(C)[C@@H]1CC[C@]2(C(=O)O)CC[C@]3(C)[C@H](CC[C@@H]4[C@@]5(C)CCC(=O)C(C)(C)[C@@H]5CC[C@]43C)[C@@H]12 .
Output: 6.19

Task: Suppose we examine the molecule CC(=O)O[C@@H]1C[C@@H]2[C@@]3(C)CC[C@@H](O)C(C)(C)[C@@H]3CC[C@@]2(C)[C@]2(C)CC[C@H]([C@]3(C)CC[C@H](C(C)(C)O)O3)[C@@H]12 ; what pIC50 value has been reported?
Output: 5.46

Task: What does the record list as pIC50 for CC1(C)C(=O)CC[C@]2(C)[C@H]3CC[C@@H]4[C@@H]([C@]5(C)CCC(=O)O5)CC[C@@]4(C)[C@]3(C)CC[C@@H]12 ?
Output: 4.55

Task: For the molecule CC(=O)O[C@@H]1C[C@@H]2[C@@]3(C)CC[C@@H](OC(C)=O)C(C)(C)[C@@H]3CC[C@@]2(C)[C@]2(C)CC[C@H]([C@]3(C)CC[C@H](C(C)(C)O)O3)[C@@H]12 , what pIC50 is on record?
Output: 5.52

Task: Name the recorded pIC50 for CC(C)(O)[C@H]1CC[C@@](C)([C@H]2CC[C@]3(C)[C@@H]2CC[C@@H]2[C@@]4(C)CC[C@@H](OC(=O)CC(=O)O)C(C)(C)[C@@H]4CC[C@]23C)O1 .
Output: 4.18

Task: Look at this molecule and give its reported pIC50. CC(C)(O)[C@H]1CC[C@@](C)([C@H]2CC[C@]3(C)[C@@H]2CC[C@@H]2[C@@]4(C)CC[C@@H](O)C(C)(C)[C@@H]4CC[C@]23C)O1
Output: 4.54

Task: GET /values?readout=pIC50&item= CC(=O)O[C@@H]1CC[C@]2(C)[C@H]3CC[C@@H]4[C@@H]([C@]5(C)CC[C@H](C(C)(C)O)O5)CC[C@@]4(C)[C@]3(C)CC[C@H]2C1(C)C
Output: 4.36

Others:
Task: For C=C(C)[C@@H]1CC[C@]2(C)[C@H](CC[C@@H]3[C@@H]([C@]4(C)CC[C@H](C(C)(C)O)O4)CC[C@]32C)[C@@]1(C)CCC(=O)OC [METHYL SHOREATE] , what is its reported pIC50?
Output: 4.70

Task: Item under review: CC(=O)O[C@@H]1C[C@@H]2[C@@]3(C)CC[C@@H](OC(=O)CC(=O)O)C(C)(C)[C@@H]3CC[C@@]2(C)[C@]2(C)CC[C@H]([C@]3(C)CC[C@H](C(C)(C)O)O3)[C@@H]12 . Reported pIC50?
Output: 4.22

====

Examples of molecules with documented IC50 follow.
- ASSAY SUMMARY: Cytotoxicity against human doxorubicin-resistant K562/Adr cells in presence of 1 uM doxorubicin after 48 hrs by MTT assay
- Type: cell-based
The figure you give is taken to be in µM; do not add the unit.

Here is how some molecules turned out for IC50.
Task: Looking for the measured IC50 of CC(C)(O)[C@H]1CC[C@@](C)([C@H]2CC[C@]3(C)[C@@H]2CC[C@@H]2[C@@]4(C)CC[C@@H](O)C(C)(C)[C@@H]4CC[C@]23C)O1 , can you help?
Output: 45.2

Task: Request the reported IC50 associated with CC(=O)O[C@@H]1CC[C@]2(C)[C@H]3CC[C@@H]4[C@@H]([C@]5(C)CC[C@H](C(C)(C)O)O5)CC[C@@]4(C)[C@]3(C)CC[C@H]2C1(C)C
Output: 68.3

Now examine the next entry.
Task: Look at this molecule and give its reported IC50. COC(=O)CC(=O)O[C@@H]1CC[C@]2(C)[C@H]3C[C@@H](OC(C)=O)[C@@H]4[C@@H]([C@]5(C)CC[C@H](C(C)(C)O)O5)CC[C@@]4(C)[C@]3(C)CC[C@H]2C1(C)C [METHYL PAPYRIFERATE]
Output: 10.6

====

- System: K562
- ASSAY SUMMARY: Cytotoxicity against human K562 cells after 48 hrs by MTT assay
- Type: cell-based
- PROTOCOL CONDITIONS: K562, 48 h
RESULT TYPE: pIC50
Hey, just a heads up that pIC50 is the negative log base 10 of the concentration in molar.

Task: Need pIC50, item COC(=O)CC(=O)O[C@@H]1CC[C@]2(C)[C@H]3CC[C@@H]4[C@@H]([C@]5(C)CC[C@H](C(C)(C)O)O5)CC[C@@]4(C)[C@]3(C)CC[C@H]2C1(C)C
Output: 4.45

Task: I am curious: what pIC50 value has been reported for CC(=O)O[C@@H]1C[C@@H]2[C@@]3(C)CC[C@@H](OC(=O)CC(=O)O)C(C)(C)[C@@H]3CC[C@@]2(C)[C@]2(C)CC[C@H]([C@]3(C)CC[C@H](C(C)(C)O)O3)[C@@H]12 ?
Output: 4.32

Task: Please look up its pIC50: CC(=O)O[C@@H]1CC[C@]2(C)[C@H]3CC[C@@H]4[C@@H]([C@]5(C)CC[C@H](C(C)(C)O)O5)CC[C@@]4(C)[C@]3(C)CC[C@H]2C1(C)C
Output: 4.38

Task: State the recorded pIC50 for this entry: CC(C)(O)[C@H]1CC[C@@](C)([C@H]2CC[C@]3(C)[C@@H]2CC[C@@H]2[C@@]4(C)CC[C@@H](OC(=O)CC(=O)O)C(C)(C)[C@@H]4CC[C@]23C)O1
Output: 4.24

Next:
Task: Fill in the blank: the reported pIC50 of COC(=O)CC(=O)O[C@@H]1CC[C@]2(C)[C@H]3C[C@@H](OC(C)=O)[C@@H]4[C@@H]([C@]5(C)CC[C@H](C(C)(C)O)O5)CC[C@@]4(C)[C@]3(C)CC[C@H]2C1(C)C [METHYL PAPYRIFERATE] is ____.
Output: 4.49

Task: Please report the recorded pIC50 for C=C(C)[C@@H](O)CC[C@](C)(O)[C@H]1CC[C@]2(C)[C@@H]1CC[C@@H]1[C@@]3(C)CCC(=O)C(C)(C)[C@@H]3CC[C@]12C .
Output: 4.40

Task: pIC50 for C=C(C)[C@@H]1CC[C@]2(C)[C@H](CCC3=C4CC(C)(C)CC[C@]4(C)CC[C@]32C)[C@@]1(C)CCC(=O)O ?
Output: 4.55

Task: For the compound C=C(C)[C@@H]1CC[C@]2(C(=O)O)CC[C@]3(C)[C@H](CC[C@@H]4[C@@]5(C)CCC(=O)C(C)(C)[C@@H]5CC[C@]43C)[C@@H]12 , what pIC50 is on record?
Output: 4.79

Task: Which value of pIC50 has been reported for CC(C)(O)[C@H]1CC[C@@](C)([C@H]2CC[C@]3(C)[C@@H]2CC[C@@H]2[C@@]4(C)CC[C@@H](O)C(C)(C)[C@@H]4CC[C@]23C)O1 in the records?
Output: 4.31

Task: Requested field: pIC50. Item: C=C(C)[C@@H]1CC[C@]2(C)[C@H](CC[C@@H]3[C@@H]([C@]4(C)CC[C@H](C(C)(C)O)O4)CC[C@]32C)[C@@]1(C)CCC(=O)OC [METHYL SHOREATE]
Output: 4.34

Task: Record request: pIC50 value, item CC(=O)O[C@@H]1C[C@@H]2[C@@]3(C)CC[C@@H](O)C(C)(C)[C@@H]3CC[C@@]2(C)[C@]2(C)CC[C@H]([C@]3(C)CC[C@H](C(C)(C)O)O3)[C@@H]12
Output: 4.56

Task: I'd like to know its pIC50. The compound in question is COC(=O)CC(=O)O[C@@H]1CC[C@]2(C)[C@H]3CC[C@@H]4[C@@H]([C@]5(C)CCC(=O)O5)CC[C@@]4(C)[C@]3(C)CC[C@H]2C1(C)C
Output: 4.33

Task: Fill blank: measured pIC50 of the compound CC(=O)O[C@@H]1C[C@@H]2[C@@]3(C)CC[C@@H](OC(C)=O)C(C)(C)[C@@H]3CC[C@@]2(C)[C@]2(C)CC[C@H]([C@]3(C)CC[C@H](C(C)(C)O)O3)[C@@H]12 is ____.
Output: 4.58
